Origin of values: patent US20120252741A1

# Tested on: Staphylococcus epidermidis 835
# protocol: MIC, broth microdilution, SE 835
# Format: cell-based
# condition_details: Staphylococcus epidermidis, 835; Table 1; class symbols; read-out: MIC SE 835
Catalogue of molecules with associated MIC

molecule	property_name	value
CCCCCCOc1ccc(S(=O)(=O)NC(=O)C[C@@H]2NC(=O)[C@H](NC(=O)[C@@H](CC(C)C)NC)[C@H](O)c3ccc(c(Cl)c3)Oc3cc4cc(c3O[C@@H]3O[C@H](CO)[C@@H](O)[C@H](O)[C@H]3O)Oc3ccc(cc3Cl)[C@@H](O)[C@@H]3NC(=O)[C@H](NC(=O)[C@@H]4NC2=O)c2ccc(O)c(c2)-c2c(O)cc(O)cc2[C@@H](C(=O)NC2C4CC5CC(C4)CC2C5)NC3=O)cc1 (stereo partly drawn)	MIC	1 to 2 µg/mL
CCCCCCCCCC(=O)NC(=O)C[C@@H]1NC(=O)[C@H](NC(=O)[C@@H](CC(C)C)NC)[C@H](O)c2ccc(c(Cl)c2)Oc2cc3cc(c2O[C@@H]2O[C@H](CO)[C@@H](O)[C@H](O)[C@H]2O[C@H]2C[C@](C)(N)[C@H](O)[C@H](C)O2)Oc2ccc(cc2Cl)[C@@H](O)[C@@H]2NC(=O)[C@H](NC(=O)[C@@H]3NC1=O)c1ccc(O)c(c1)-c1c(O)cc(O)cc1[C@@H](C(=O)NC1C3CC4CC(C3)CC1C4)NC2=O (stereo partly drawn)	MIC	0.01 to 0.5 µg/mL

The reported value for CCCCOc1ccc(S(=O)(=O)NC(=O)C[C@@H]2NC(=O)[C@H](NC(=O)[C@@H](CC(C)C)NC)[C@H](O)c3ccc(c(Cl)c3)Oc3cc4cc(c3O[C@@H]3O[C@H](CO)[C@@H](O)[C@H](O)[C@H]3O)Oc3ccc(cc3Cl)[C@@H](O)[C@@H]3NC(=O)[C@H](NC(=O)[C@@H]4NC2=O)c2ccc(O)c(c2)-c2c(O)cc(O)cc2[C@@H](C(=O)NC2C4CC5CC(C4)CC2C5)NC3=O)cc1 (stereo partly drawn) in terms of MIC is 0.01 to 0.5 µg/mL
